biological target: CUGBP1 RRM1 (ITC) (human, UniProt Q92879 16-99); assay: ITC
Sequence (Q92879 16-99): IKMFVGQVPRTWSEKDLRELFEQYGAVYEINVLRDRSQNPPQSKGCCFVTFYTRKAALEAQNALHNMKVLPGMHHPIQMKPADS
Property name: Kd (µM)
Just the number please, in µM, no unit attached.

Exercise: Item under review: UUGUU (ssRNA) [UUGUU 5-nt] . Reported Kd?
Key: 29
